- system name: Serine/threonine-protein kinase Nek7 (Homo sapiens);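 also: reported values are mean inhibition of NEK7 from the GSK PKIS kinase screening panel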
- test parameters: at 1 µM
Label met when inhibition is at or above 2%; otherwise label not met.

[[record]]
compound_structure_string = "CCS(=O)(=O)c1ccc(OC)c(Nc2ncc(-c3cccc(F)c3)o2)c1"
class = "not met"

[[record]]
compound_structure_string = "c1ccc(-c2n[nH]cc2-c2ccnc(-c3ccc(OCCn4ccnc4)cc3)c2)nc1"
class = "met"

[[record]]
compound_structure_string = "NS(=O)(=O)c1cccc(N/C=C2\\C(=O)Nc3ccccc32)c1"
class = "met"

[[record]]
compound_structure_string = "CS(=O)(=O)CCNCc1ccoc1-c1ccc2ncnc(Nc3ccc(OCc4ccccc4)cc3)c2c1"
class = "not met"

[[record]]
compound_structure_string = "COc1ccc(Nc2ncc(-c3ccccc3)o2)cc1OC"
class = "not met"


###

Readings of inhibition for the listed compounds
- system name: Mitogen-activated protein kinase 12 (Homo sapiens) (UniProt P53778);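 also: values are averaged p38gamma kinase inhibition readings, compounds tested at 1 µM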
- Sequence (P53778 whole entry): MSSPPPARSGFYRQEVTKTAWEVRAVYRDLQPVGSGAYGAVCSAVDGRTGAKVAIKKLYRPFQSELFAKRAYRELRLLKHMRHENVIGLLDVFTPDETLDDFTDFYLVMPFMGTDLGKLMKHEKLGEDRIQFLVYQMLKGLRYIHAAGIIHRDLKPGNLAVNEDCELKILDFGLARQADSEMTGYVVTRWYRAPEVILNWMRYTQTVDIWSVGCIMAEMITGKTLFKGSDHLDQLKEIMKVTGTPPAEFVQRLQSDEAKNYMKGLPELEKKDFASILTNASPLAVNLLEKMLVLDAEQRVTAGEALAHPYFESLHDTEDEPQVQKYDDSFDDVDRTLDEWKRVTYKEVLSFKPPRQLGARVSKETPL
- test parameters: at 1 µM
endpoint label: inhibition (%)

[[record]]
compound_structure_string = "N#Cc1ccc2c(-c3ccnc(NC4CC4)n3)c(-c3ccc(F)cc3)nn2c1"
reading = 1.13

[[record]]
compound_structure_string = "CS(=O)(=O)CCNCc1ccc(-c2ccc3ncnc(Nc4ccc(OCc5ccccc5)cc4)c3c2)o1"
reading = 2.57

[[record]]
compound_structure_string = "O=C(O[C@H]1CN[C@H](C#Cc2cc3ncnc(Nc4ccc(OCc5cccc(F)c5)c(Cl)c4)c3s2)C1)N1CCOCC1"
reading = 3.47

[[record]]
compound_structure_string = "NC(=O)c1ccc2c(-c3ccnc(NCCCO)n3)c(-c3ccc(F)cc3)nn2c1"
reading = 3.04

[[record]]
compound_structure_string = "Fc1cccc(COc2ccc(Nc3ncncc3C#Cc3ccccc3)cc2Cl)c1"
reading = 2.58

[[record]]
compound_structure_string = "CCOc1ccc2c(-c3ccnc(Nc4cc(OC)cc(C(F)(F)F)c4)n3)cnn2n1"
reading = 1.08

[[record]]
compound_structure_string = "OCCCNc1nccc(-c2c(-c3ccc(F)cc3)nn3cc(C(F)(F)F)ccc23)n1"
reading = 2.13

[[record]]
compound_structure_string = "Cc1nnc(-c2cccc(-c3ccc(C(=O)NCC4CC4)cc3)c2)o1"
reading = 2.67

[[record]]
compound_structure_string = "CCS(=O)(=O)c1ccc(OC)c(Nc2ncc(-c3cccc(F)c3)o2)c1"
reading = 4.78


###

- Test system: Tyrosine-protein kinase ABL1 (Homo sapiens), P00519 [Y253F]
- test parameters: at 1 µM
Readings of inhibition for the listed molecules
endpoint label: inhibition (%)

[[record]]
molecule = "COc1cc(N2CCN(C(C)C)CC2)ccc1Nc1nc(Nc2cccc(F)c2C(=O)O)c2cc[nH]c2n1"
reading = 5.73

[[record]]
molecule = "COc1cc2c(cc1Nc1nc(Nc3cccc(F)c3C(N)=O)c3cc[nH]c3n1)N(C(=O)CN1CCN(C(C)C)CC1)CC2"
reading = 1.07

[[record]]
molecule = "COc1cccc(Nc2nccc(-c3cnn4ncccc34)n2)c1"
reading = 39.2

[[record]]
molecule = "CC1=C(C(=O)Nc2ccc3[nH]ncc3c2)C(c2ccc(F)cc2)N=C(c2ccc(C(F)(F)F)nc2)N1 (stereo not given)"
reading = 2.79

[[record]]
molecule = "COc1cccc(-n2ncc3c(N/N=C/c4ccc(C(=O)NCCN(C)C)cc4)ncnc32)c1"
reading = 94.5

[[record]]
molecule = "CNC(=O)c1ncccc1Nc1nc(Nc2cc3c(cc2OC)CCCN3C(=O)CN(C)C)nc2[nH]ccc12"
reading = 3.74

[[record]]
molecule = "NS(=O)(=O)c1cccc(N/C=C2\\C(=O)Nc3ccccc32)c1"
reading = 11

[[record]]
molecule = "CN(c1ccc(NC(=O)NCCN2CCOCC2)cc1)c1ccnc(Nc2ccc(CS(C)(=O)=O)cc2)n1"
reading = 22.1

[[record]]
molecule = "CNC(=O)c1sc(-n2cnc3cc(OC)c(OC)cc32)cc1OCc1ccccc1C(F)(F)F"
reading = 10.3

[[record]]
molecule = "N#Cc1cccc(Nc2ncc(-c3ccccc3)o2)c1"
reading = 21.7

[[record]]
molecule = "Cn1c(-c2nonc2N)nc2cnccc21"
reading = 0.38

[[record]]
molecule = "O=C(O[C@H]1CN[C@H](C#Cc2cc3ncnc(Nc4ccc5c(cnn5Cc5ccccc5)c4)c3s2)C1)N1CCOCC1"
reading = 0.7

[[record]]
molecule = "Cc1cc(O)cc(C)c1/C=C/c1cncc(C(N)=O)c1"
reading = 73.6

[[record]]
molecule = "CNC(=O)c1cncc(/C=C/c2ccccc2C)c1"
reading = 31.7

[[record]]
molecule = "O=C(Nc1n[nH]c2nnc(-c3cccnc3)cc12)C1CC1"
reading = 3.53


###

- system name: Serine/threonine-protein kinase pim-2 (Homo sapiens) (UniProt Q9P1W9);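 also: each value is a mean of the inhibition measurements against the kinase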
- Sequence (Q9P1W9 whole entry, looked up): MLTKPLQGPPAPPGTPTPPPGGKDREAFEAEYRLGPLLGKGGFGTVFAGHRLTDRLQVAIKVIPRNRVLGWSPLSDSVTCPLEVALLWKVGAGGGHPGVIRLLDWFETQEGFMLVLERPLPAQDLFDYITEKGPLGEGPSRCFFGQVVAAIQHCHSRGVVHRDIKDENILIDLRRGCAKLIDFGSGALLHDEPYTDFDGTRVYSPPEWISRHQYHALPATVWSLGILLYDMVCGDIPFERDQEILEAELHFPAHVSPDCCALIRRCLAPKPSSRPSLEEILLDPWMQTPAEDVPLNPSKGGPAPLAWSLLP
- test parameters: at 1 µM
endpoint label: inhibition (%)

[[record]]
compound = "COc1ccc2ncn(-c3cc(O[C@H](C)c4ccccc4C(F)(F)F)c(C(N)=O)s3)c2c1"
system_name = "Serine/threonine-protein kinase pim-2 (Homo sapiens) (UniProt Q9P1W9)"
endpoint_label = "inhibition"
display_unit = "%"
reading = 0.75

[[record]]
compound = "CN1CCC(n2cnc(-c3ccc(F)cc3)c2-c2ccnc(NCCO)n2)CC1"
system_name = "Serine/threonine-protein kinase pim-2 (Homo sapiens) (UniProt Q9P1W9)"
endpoint_label = "inhibition"
display_unit = "%"
reading = 2.65

[[record]]
compound = "O=C(O[C@H]1CN[C@H](C#Cc2cc3ncnc(Nc4ccc(OCc5cccc(F)c5)c(Cl)c4)c3s2)C1)N1CCOCC1"
system_name = "Serine/threonine-protein kinase pim-2 (Homo sapiens) (UniProt Q9P1W9)"
endpoint_label = "inhibition"
display_unit = "%"
reading = 0.28

[[record]]
compound = "NS(=O)(=O)c1ccc(N/N=C2\\C(=O)Nc3cccc(CCc4ccncc4)c32)cc1"
system_name = "Serine/threonine-protein kinase pim-2 (Homo sapiens) (UniProt Q9P1W9)"
endpoint_label = "inhibition"
display_unit = "%"
reading = 0.64

[[record]]
compound = "c1ccc(-c2n[nH]cc2-c2ccnc(-c3ccc(OCCn4ccnc4)cc3)c2)nc1"
system_name = "Serine/threonine-protein kinase pim-2 (Homo sapiens) (UniProt Q9P1W9)"
endpoint_label = "inhibition"
display_unit = "%"
reading = 0.26

[[record]]
compound = "Cc1cc(O)cc(C)c1/C=C/c1cncc(C(=O)OC(C)(C)C)c1"
system_name = "Serine/threonine-protein kinase pim-2 (Homo sapiens) (UniProt Q9P1W9)"
endpoint_label = "inhibition"
display_unit = "%"
reading = 1.55

[[record]]
compound = "COc1ccc(Nc2ncc(-c3ccccc3)o2)cc1OC"
system_name = "Serine/threonine-protein kinase pim-2 (Homo sapiens) (UniProt Q9P1W9)"
endpoint_label = "inhibition"
display_unit = "%"
reading = 1.95

[[record]]
compound = "Cc1ccc(-c2cc3c(NC(=O)C4CC4)ncnc3o2)cc1"
system_name = "Serine/threonine-protein kinase pim-2 (Homo sapiens) (UniProt Q9P1W9)"
endpoint_label = "inhibition"
display_unit = "%"
reading = 1.12

[[record]]
compound = "CN(C)CCNC(=O)Nc1ccc(N(C)c2ccnc(Nc3ccc(CS(C)(=O)=O)cc3)n2)cc1"
system_name = "Serine/threonine-protein kinase pim-2 (Homo sapiens) (UniProt Q9P1W9)"
endpoint_label = "inhibition"
display_unit = "%"
reading = 2.68

[[record]]
compound = "CNC(=O)c1ncccc1Nc1nc(Nc2cc3c(cc2OC)CCCN3C(=O)CN(C)C)nc2[nH]ccc12"
system_name = "Serine/threonine-protein kinase pim-2 (Homo sapiens) (UniProt Q9P1W9)"
endpoint_label = "inhibition"
display_unit = "%"
reading = 5.43

[[record]]
compound = "COC(=O)Nc1nc2ccc(Oc3ccc(NC(=O)Nc4cc(C(F)(F)F)ccc4F)cc3)cc2s1"
system_name = "Serine/threonine-protein kinase pim-2 (Homo sapiens) (UniProt Q9P1W9)"
endpoint_label = "inhibition"
display_unit = "%"
reading = 0.12

[[record]]
compound = "c1cnn2ncc(-c3ccnc(NCCCN4CCOCC4)n3)c2c1"
system_name = "Serine/threonine-protein kinase pim-2 (Homo sapiens) (UniProt Q9P1W9)"
endpoint_label = "inhibition"
display_unit = "%"
reading = -1.06

[[record]]
compound = "CC1=C(C(=O)Nc2ccc3[nH]nc(C)c3c2)C(c2ccc(C(F)(F)F)cc2)CC(=O)N1 (centres undefined)"
system_name = "Serine/threonine-protein kinase pim-2 (Homo sapiens) (UniProt Q9P1W9)"
endpoint_label = "inhibition"
display_unit = "%"
reading = 0.55

[[record]]
compound = "CNC(=O)c1sc(-n2cnc3cc(OC)c(OC)cc32)cc1OCc1ccccc1C(F)(F)F"
system_name = "Serine/threonine-protein kinase pim-2 (Homo sapiens) (UniProt Q9P1W9)"
endpoint_label = "inhibition"
display_unit = "%"
reading = 0.56

[[record]]
compound = "CC(C)c1ccc(-c2cc(-c3c[nH]nc3-c3ccccn3)ccn2)cc1"
system_name = "Serine/threonine-protein kinase pim-2 (Homo sapiens) (UniProt Q9P1W9)"
endpoint_label = "inhibition"
display_unit = "%"
reading = -0.1

[[record]]
compound = "Fc1cccc(COc2ccc(Nc3ncncc3C#Cc3ccccc3)cc2Cl)c1"
system_name = "Serine/threonine-protein kinase pim-2 (Homo sapiens) (UniProt Q9P1W9)"
endpoint_label = "inhibition"
display_unit = "%"
reading = 1.48

[[record]]
compound = "COC(=O)Nc1nc2cc(Oc3ccc(NC(=O)Nc4ccccc4)cc3)ccc2[nH]1"
system_name = "Serine/threonine-protein kinase pim-2 (Homo sapiens) (UniProt Q9P1W9)"
endpoint_label = "inhibition"
display_unit = "%"
reading = 0.64

[[record]]
compound = "CCS(=O)(=O)c1ccc(OC)c(Nc2ncc(-c3cccc(F)c3)o2)c1"
system_name = "Serine/threonine-protein kinase pim-2 (Homo sapiens) (UniProt Q9P1W9)"
endpoint_label = "inhibition"
display_unit = "%"
reading = 0.08

[[record]]
compound = "Fc1ccc(Nc2nccc(-c3c(-c4ccc(C(F)(F)F)cc4)nn4ncccc34)n2)cc1F"
system_name = "Serine/threonine-protein kinase pim-2 (Homo sapiens) (UniProt Q9P1W9)"
endpoint_label = "inhibition"
display_unit = "%"
reading = 5.02

